Test: soluble on expression in E. coli; label from the status in PepcDB or PDB records
TEST_READOUT: soluble on expression in E. coli

INSERT INTO measurements (record_sequence, assay_result) VALUES
  ('MSGTNRVAANLNMLFTNLPLLQRYGAAASAGFKLVEVSIPYTEPAEKLREAADEYHLKHTLINAPPGNWDDGFRGLASLKSAKKEFRKSLDTAIEYAKALGCCRVHVMAGIPKSDDDLENAHQTYSENVRFAAEKFKEHKLICLIEPINKYTIPGYHLNNYEDAMDVIQMDQSNNLKIQYDTFHAQQINGQIGAIMRKLKDYIGYIQVAQVPNRGACDTRGEIDYHFIFDEIRSINPSWVIGAEYLDAKPSFNWIENMSLSF', 'not soluble'),
  ('MDLTKLTFESVFGGSDVPMKPSRSEDNKTPRNRTDLEMFLKKTPLMVLEEAAKAVYQKTPTWGTVELPEGFEMTLILNEITVKGQATSKKAARQKAAVEYLRKVVEKGKHEIFFIPGTTKEEALSNIDQISDKAEELKRSTSDAVQDNDNDDSIPTSAEFPPGISPTENWVGKLQEKSQKSKLQAPIYEDSKNERTERFLVICTMCNQKTRGIRSKKKDAKNLAAWLMWKALEDGIESLESYDMVDVIENLEEAEHLLEIQDQASKIKDKHSALIDILSDKKRFSDYSMDFNVLSVSTMGIHQVLLEISFRRLVSPDPDDLEMGAEHTQTEEIMKATAEKEKLRKKNMPDSGPLVFAGHGSSAEEAKQCACKSAIIHFNTYDFTD', 'not soluble');
